Numbers sourced from paper PMC10935766.

- TARGET SYSTEM: T1, E6AP AZUL 24-87 (Homo sapiens, UniProt Q05086)
- T1 chain: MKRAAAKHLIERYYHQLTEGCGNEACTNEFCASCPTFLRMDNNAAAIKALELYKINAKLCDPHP
- ASSAY SUMMARY: fluorescence
READOUT KIND: Kd

Form field Kd, entry Rpn10 RAZUL S358C-acrylodan 305-377 (protein, S358C labeled with acrylodan) SADIDASSAMDTSEPAKEEDDYDVMQDPEFLQSVLENLPGVDPNNEAIRNAMGSLASQATKDGKKDKKEEDKK : ~18 nM
